Numbers sourced from patent US20260365670A1.

Item-by-item account of IC50
Molecular target: EGFR (C797S L858R) (Homo sapiens, UniProt P00533, C797S/L858R)
Construct: purchased signalchem
Sequence (P00533 25-1210 C797S/L858R): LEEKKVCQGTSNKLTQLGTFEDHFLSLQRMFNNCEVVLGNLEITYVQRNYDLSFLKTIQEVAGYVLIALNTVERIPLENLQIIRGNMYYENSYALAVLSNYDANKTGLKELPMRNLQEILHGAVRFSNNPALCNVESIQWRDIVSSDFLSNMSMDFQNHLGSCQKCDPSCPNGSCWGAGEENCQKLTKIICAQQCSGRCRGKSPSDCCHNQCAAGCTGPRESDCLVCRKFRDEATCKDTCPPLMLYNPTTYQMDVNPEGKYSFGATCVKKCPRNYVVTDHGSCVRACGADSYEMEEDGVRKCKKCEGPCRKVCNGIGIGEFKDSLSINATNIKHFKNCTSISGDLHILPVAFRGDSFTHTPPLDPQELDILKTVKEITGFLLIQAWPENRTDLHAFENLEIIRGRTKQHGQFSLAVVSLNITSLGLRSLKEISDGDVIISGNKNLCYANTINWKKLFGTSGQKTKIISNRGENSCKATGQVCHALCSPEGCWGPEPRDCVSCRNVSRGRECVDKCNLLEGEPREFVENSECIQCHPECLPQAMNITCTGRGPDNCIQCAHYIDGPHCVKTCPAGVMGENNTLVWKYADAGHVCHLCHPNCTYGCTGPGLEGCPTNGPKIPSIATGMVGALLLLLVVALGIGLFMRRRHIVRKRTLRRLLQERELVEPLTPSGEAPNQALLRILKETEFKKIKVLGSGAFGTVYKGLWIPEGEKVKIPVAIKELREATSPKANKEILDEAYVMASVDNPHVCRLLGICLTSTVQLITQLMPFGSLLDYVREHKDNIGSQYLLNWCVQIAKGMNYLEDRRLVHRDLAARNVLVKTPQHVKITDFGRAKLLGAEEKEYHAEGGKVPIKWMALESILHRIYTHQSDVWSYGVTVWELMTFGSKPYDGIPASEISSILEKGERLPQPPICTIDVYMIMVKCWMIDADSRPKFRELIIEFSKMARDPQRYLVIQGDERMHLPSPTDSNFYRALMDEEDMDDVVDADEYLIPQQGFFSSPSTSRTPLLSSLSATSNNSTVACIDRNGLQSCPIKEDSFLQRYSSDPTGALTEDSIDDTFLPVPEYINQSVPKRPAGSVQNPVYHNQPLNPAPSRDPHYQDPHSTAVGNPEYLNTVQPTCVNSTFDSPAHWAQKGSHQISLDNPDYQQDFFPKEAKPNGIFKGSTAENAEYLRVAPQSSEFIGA
Assay: Inhibition of EGFR (C797S L858R) biochemical enzymatic activity (HTRF)
Settings: EGFR L858-C797S, 1 mM ATP, 1 h, room temperature, read-out: IC50 (nM) @L858-C797S

# compound, operator-symbol, IC50 [nM]
measured = [
    ("CN1CCN(C2CCN(c3ccc4nc5n(c4c3)C34CCC(CN(CCOc6c(cnn6C)-c6cc(cn(C)c6=O)C(=O)N5)C3)C4)C2)CC1 (single isomer, unassigned) [Example A80A2]", ">", 5000),
    ("C[C@@H]1CCCOc2c(cnn2C)-c2cc(cn(C)c2=O)C(=O)Nc2nc3ccc(N4CCC(N5CCN(C)CC5)CC4)cc3n2C1 [Example A29]", "=", 7.9),
    ("CN1CCN(c2ccc3nc4n(c3c2)CCN(CC(F)(F)F)CCOc2c(cnn2C)-c2cc(cn(C)c2=O)C(=O)N4)CC1 [Example A3]", "=", 10),
    ("CN1CCC2(CC1)CN(c1ccc3nc4n(c3c1)C13CCC(CN(CCOc5c(cnn5C)-c5cc(cn(C)c5=O)C(=O)N4)C1)C3)C2 (single isomer, unassigned) [Example A77B]", "=", 3.7),
    ("Cn1ncc2c1OCCN1CCCCC(C1)n1c(nc3ccccc31)NC(=O)c1cc-2c(=O)n(C)c1 (centres unmarked) [Example A8]", "=", 3550),
    ("CCN1CCOc2c(cnn2C)-c2cc(cn(C)c2=O)C(=O)Nc2nc3ccccc3n2C(C)C1 (centres unmarked) [Example A6]", ">", 5000),
    ("Cn1ncc2c1OCCN1CC3CCC(C3)(C1)n1c(nc3ccc(N4CCN(C5CC5)CC4)cc31)NC(=O)c1cc-2c(=O)n(C)c1 (single isomer, unassigned) [Example A83B]", "=", 5),
    ("Cn1ncc2c1OCCN1CC3CCC(C3)(C1)n1c(nc3ccc(N4CC(N5CCOCC5)C4)cc31)NC(=O)c1cc-2c(=O)n(C)c1 (single isomer, unassigned) [Example A69A]", ">", 5000),
]
